- ASSAYED SYSTEM: Cytochrome P450 2C19 (Homo sapiens)
- METHOD NOTES: Cytochrome panel assay with activity outcomes
- STATED CONDITIONS: recombinant CYP, pro-luciferin dealkylation, luminescence, p450-cyp2c19; series mostly up to 57.1 µM
In all, about 16,000 compounds went through this assay and about 5,800 (36%) were called active. Inconclusive results (about 23%) are left out. The call rests on the fitted dose curve; in most records, active means well fitted curve in the direction sought with a large enough effect; inconclusive means small, poorly fitted or top-dose-only effect, or effect the other way; inactive means no such curve, though single readings can be large or run the other way. The list shows a part of the results.
Please state which outcome applies, choosing from t for active, f for inactive

query: Status in this test for `CC(C)[C@@H]1CN[C@H](C(=O)O)[C@@H]1CC(=O)O` ?
result: f

query: Status in this test for `O=C(Oc1ccccc1)N1CCC[C@@]2(CCN(C(c3ccccc3)c3ccccc3)C2)C1` ?
result: f

query: Status in this test for `O=c1c(O)c(-c2ccc(O)c(O)c2)oc2cc(O)cc(O)c12` ?
result: f
